Reported shrunken log2 fold change values for a set of sequences
# Tested on: Escherichia coli TOP10
# Experimental Protocol: shrunken log2 fold change of peptide-encoding DNA abundance (4.5 h post-induction vs induction); higher = less antimicrobial activity (less host growth inhibition)
# Cond: time post-induction: 4.5 h; library: site-saturation at positions 5, 18, 19, 20
Quick one: just the number, no unit, thanks!

Q: What does the record list as shrunken log2 fold change for `RRIRARPPRLPRPRPRPDYDPRP` ?
Ans: 0.0454

Q: What does the record list as shrunken log2 fold change for `RRIRVRPPRLPRPRPRPKNAPRP` ?
Ans: -0.197

Q: What does the record list as shrunken log2 fold change for `RRIRFRPPRLPRPRPRPQVWPRP` ?
Ans: 0.135

Q: What does the record list as shrunken log2 fold change for `RRIRVRPPRLPRPRPRPMNKPRP` ?
Ans: -0.403

Q: What does the record list as shrunken log2 fold change for `RRIRKRPPRLPRPRPRPPDQPRP` ?
Ans: 0.802

* * *

# Test system: Escherichia coli TOP10
# Experimental Protocol: shrunken log2 fold change of peptide-encoding DNA abundance (4.5 h post-induction vs induction); higher = less antimicrobial activity (less host growth inhibition)
# Cond: time post-induction: 4.5 h; library: site-saturation at positions 5, 18, 19, 20
Reported shrunken log2 fold change values for a set of sequences
Quick one: just the number, no unit, thanks!

Use the examples below as a reference point.
RRIRRRPPRLPRPRPRPMIIPRP : -0.171
RRIRERPPRLPRPRPRPQEYPRP : -0.01
RRIRQRPPRLPRPRPRPGACPRP : 0.206

Could you now look at the following sequence, please?
Q: What does the record list as shrunken log2 fold change for `RRIRARPPRLPRPRPRPRQPPRP` ?
Ans: 0.75

* * *

# Tested on: Escherichia coli TOP10
# Experimental Protocol: shrunken log2 fold change of peptide-encoding DNA abundance (4.5 h post-induction vs induction); higher = less antimicrobial activity (less host growth inhibition)
# Cond: time post-induction: 4.5 h; library: site-saturation at positions 5, 18, 19, 20
Kind request: treat 0.3 as inclusive, so shrunken log2 fold change at 0.3 or higher is YES, anything lower is NO.

RRIRKRPPRLPRPRPRPPFGPRP : YES
RRIRPRPPRLPRPRPRPVPDPRP : NO

Q: Check this sequence for shrunken log2 fold change at or above 0.3: `RRIRPRPPRLPRPRPRPMSSPRP`
Ans: NO

Q: Check this sequence for shrunken log2 fold change at or above 0.3: `RRIRPRPPRLPRPRPRPLMEPRP`
Ans: NO

Q: Check this sequence for shrunken log2 fold change at or above 0.3: `RRIRGRPPRLPRPRPRPIGAPRP`
Ans: NO

Q: Check this sequence for shrunken log2 fold change at or above 0.3: `RRIRERPPRLPRPRPRPHAVPRP`
Ans: NO

Q: Check this sequence for shrunken log2 fold change at or above 0.3: `RRIRWRPPRLPRPRPRPILKPRP`
Ans: NO

* * *

Reported shrunken log2 fold change values for a set of sequences
# System: Escherichia coli TOP10
# Experimental Protocol: shrunken log2 fold change of peptide-encoding DNA abundance (4.5 h post-induction vs induction); higher = less antimicrobial activity (less host growth inhibition)
# Cond: time post-induction: 4.5 h; library: site-saturation at positions 5, 18, 19, 20
Quick one: just the number, no unit, thanks!

Use the examples below as a reference point.
RRIRIRPPRLPRPRPRPSKQPRP : -0.18
RRIRKRPPRLPRPRPRPWVPPRP : 0.481
RRIRARPPRLPRPRPRPRQFPRP : 0.32
RRIRFRPPRLPRPRPRPEINPRP : -0.00788

Could you now look at the following sequence, please?
Q: Which measured shrunken log2 fold change belongs to `RRIRKRPPRLPRPRPRPYFRPRP` , tested on Escherichia coli TOP10?
Ans: 0.123

* * *

# Test system: Escherichia coli TOP10
# Experimental Protocol: shrunken log2 fold change of peptide-encoding DNA abundance (4.5 h post-induction vs induction); higher = less antimicrobial activity (less host growth inhibition)
# Cond: time post-induction: 4.5 h; library: site-saturation at positions 5, 18, 19, 20
Assign classes using reported shrunken log2 fold change values and the ranges low (below 0.03), intermediate (0.03 to below 0.5), high (0.5 or more), please.

RRIRGRPPRLPRPRPRPTISPRP : high

Q: Lab note: which band did `RRIRFRPPRLPRPRPRPESVPRP` land in?
Ans: intermediate

Q: Lab note: which band did `RRIRRRPPRLPRPRPRPMRKPRP` land in?
Ans: high

Q: Lab note: which band did `RRIRDRPPRLPRPRPRPECHPRP` land in?
Ans: intermediate

Q: Lab note: which band did `RRIRQRPPRLPRPRPRPAHHPRP` land in?
Ans: intermediate

Q: Lab note: which band did `RRIRPRPPRLPRPRPRPFWTPRP` land in?
Ans: low

Q: Lab note: which band did `RRIRFRPPRLPRPRPRPKPAPRP` land in?
Ans: high

Q: Lab note: which band did `RRIRERPPRLPRPRPRPDCHPRP` land in?
Ans: low

Q: Lab note: which band did `RRIRDRPPRLPRPRPRPAKLPRP` land in?
Ans: intermediate

Q: Lab note: which band did `RRIRFRPPRLPRPRPRPNHHPRP` land in?
Ans: low

Q: Lab note: which band did `RRIRPRPPRLPRPRPRPKLTPRP` land in?
Ans: intermediate

* * *

# System: Escherichia coli TOP10
# Experimental Protocol: shrunken log2 fold change of peptide-encoding DNA abundance (4.5 h post-induction vs induction); higher = less antimicrobial activity (less host growth inhibition)
# Cond: time post-induction: 4.5 h; library: site-saturation at positions 5, 18, 19, 20
Kind request: treat -0.1 as inclusive, so shrunken log2 fold change at -0.1 or higher is criterion met, anything lower is criterion not met.

Solved cases (3 shown):
RRIRSRPPRLPRPRPRPQGGPRP : criterion met
RRIRWRPPRLPRPRPRPTQMPRP : criterion met
RRIRFRPPRLPRPRPRPNGVPRP : criterion met

Q: Check this sequence for shrunken log2 fold change at or above -0.1: `RRIRLRPPRLPRPRPRPSYVPRP`
Ans: criterion not met

Q: Check this sequence for shrunken log2 fold change at or above -0.1: `RRIRSRPPRLPRPRPRPYEHPRP`
Ans: criterion not met

Q: Check this sequence for shrunken log2 fold change at or above -0.1: `RRIRCRPPRLPRPRPRPYAPPRP`
Ans: criterion not met

Q: Check this sequence for shrunken log2 fold change at or above -0.1: `RRIRCRPPRLPRPRPRPNSIPRP`
Ans: criterion not met

Q: Check this sequence for shrunken log2 fold change at or above -0.1: `RRIRDRPPRLPRPRPRPDWQPRP`
Ans: criterion met

* * *

# System: Escherichia coli TOP10
# Experimental Protocol: shrunken log2 fold change of peptide-encoding DNA abundance (4.5 h post-induction vs induction); higher = less antimicrobial activity (less host growth inhibition)
# Cond: time post-induction: 4.5 h; library: site-saturation at positions 5, 18, 19, 20
Kind request: treat -0.02 as inclusive, so shrunken log2 fold change at -0.02 or higher is 1, anything lower is 0.

RRIRMRPPRLPRPRPRPFYKPRP : 0
RRIRVRPPRLPRPRPRPIMAPRP : 0
RRIRVRPPRLPRPRPRPGENPRP : 0
RRIRNRPPRLPRPRPRPIVCPRP : 0
RRIRNRPPRLPRPRPRPFSYPRP : 0

Q: Check this sequence for shrunken log2 fold change at or above -0.02: `RRIRPRPPRLPRPRPRPMKEPRP`
Ans: 1

Q: Check this sequence for shrunken log2 fold change at or above -0.02: `RRIRIRPPRLPRPRPRPVVPPRP`
Ans: 0

Q: Check this sequence for shrunken log2 fold change at or above -0.02: `RRIRLRPPRLPRPRPRPPVWPRP`
Ans: 1

Q: Check this sequence for shrunken log2 fold change at or above -0.02: `RRIRIRPPRLPRPRPRPWRLPRP`
Ans: 0

Q: Check this sequence for shrunken log2 fold change at or above -0.02: `RRIRPRPPRLPRPRPRPMGAPRP`
Ans: 1

Q: Check this sequence for shrunken log2 fold change at or above -0.02: `RRIRFRPPRLPRPRPRPTIMPRP`
Ans: 0

Q: Check this sequence for shrunken log2 fold change at or above -0.02: `RRIRYRPPRLPRPRPRPKQQPRP`
Ans: 0

* * *

# System: Escherichia coli TOP10
# Experimental Protocol: shrunken log2 fold change of peptide-encoding DNA abundance (4.5 h post-induction vs induction); higher = less antimicrobial activity (less host growth inhibition)
# Cond: time post-induction: 4.5 h; library: site-saturation at positions 5, 18, 19, 20
Reported shrunken log2 fold change values for a set of sequences

Use the examples below as a reference point.
RRIRDRPPRLPRPRPRPSWMPRP : -0.166
RRIRRRPPRLPRPRPRPGKCPRP : -0.283
RRIRERPPRLPRPRPRPAQWPRP : 0.184
RRIRLRPPRLPRPRPRPYWIPRP : -0.00778
RRIRMRPPRLPRPRPRPRRWPRP : 0.881

Q: Which measured shrunken log2 fold change belongs to `RRIRARPPRLPRPRPRPACKPRP` , tested on Escherichia coli TOP10?
Ans: 0.558

Q: Which measured shrunken log2 fold change belongs to `RRIRSRPPRLPRPRPRPVKMPRP` , tested on Escherichia coli TOP10?
Ans: 0.0674

Q: Which measured shrunken log2 fold change belongs to `RRIRWRPPRLPRPRPRPYEVPRP` , tested on Escherichia coli TOP10?
Ans: -0.114

Q: Which measured shrunken log2 fold change belongs to `RRIRCRPPRLPRPRPRPMGHPRP` , tested on Escherichia coli TOP10?
Ans: -0.262

Q: Which measured shrunken log2 fold change belongs to `RRIRQRPPRLPRPRPRPRGAPRP` , tested on Escherichia coli TOP10?
Ans: 0.399

Q: Which measured shrunken log2 fold change belongs to `RRIRHRPPRLPRPRPRPSRQPRP` , tested on Escherichia coli TOP10?
Ans: 0.212

Q: Which measured shrunken log2 fold change belongs to `RRIRNRPPRLPRPRPRPMHKPRP` , tested on Escherichia coli TOP10?
Ans: -0.131

Q: Which measured shrunken log2 fold change belongs to `RRIRQRPPRLPRPRPRPTWNPRP` , tested on Escherichia coli TOP10?
Ans: -0.0697

Q: Which measured shrunken log2 fold change belongs to `RRIRARPPRLPRPRPRPQRSPRP` , tested on Escherichia coli TOP10?
Ans: 0.17

Q: Which measured shrunken log2 fold change belongs to `RRIRPRPPRLPRPRPRPQWAPRP` , tested on Escherichia coli TOP10?
Ans: 0.052

Q: Which measured shrunken log2 fold change belongs to `RRIRTRPPRLPRPRPRPNMIPRP` , tested on Escherichia coli TOP10?
Ans: -0.277

Q: Which measured shrunken log2 fold change belongs to `RRIRTRPPRLPRPRPRPDDKPRP` , tested on Escherichia coli TOP10?
Ans: -0.294

Q: Which measured shrunken log2 fold change belongs to `RRIRDRPPRLPRPRPRPLIYPRP` , tested on Escherichia coli TOP10?
Ans: -0.653

Q: Which measured shrunken log2 fold change belongs to `RRIRARPPRLPRPRPRPNLYPRP` , tested on Escherichia coli TOP10?
Ans: -0.345

Q: Which measured shrunken log2 fold change belongs to `RRIRHRPPRLPRPRPRPSWLPRP` , tested on Escherichia coli TOP10?
Ans: -0.0847

Q: Which measured shrunken log2 fold change belongs to `RRIRERPPRLPRPRPRPAQAPRP` , tested on Escherichia coli TOP10?
Ans: 0.073

Q: Which measured shrunken log2 fold change belongs to `RRIRKRPPRLPRPRPRPWNCPRP` , tested on Escherichia coli TOP10?
Ans: 0.0387

Q: Which measured shrunken log2 fold change belongs to `RRIRMRPPRLPRPRPRPHYVPRP` , tested on Escherichia coli TOP10?
Ans: -0.0815

Q: Which measured shrunken log2 fold change belongs to `RRIRMRPPRLPRPRPRPHGTPRP` , tested on Escherichia coli TOP10?
Ans: 0.148

Q: Which measured shrunken log2 fold change belongs to `RRIRFRPPRLPRPRPRPTSTPRP` , tested on Escherichia coli TOP10?
Ans: -0.0598

Q: Which measured shrunken log2 fold change belongs to `RRIRFRPPRLPRPRPRPPRPPRP` , tested on Escherichia coli TOP10?
Ans: 0.905

Q: Which measured shrunken log2 fold change belongs to `RRIRIRPPRLPRPRPRPEGFPRP` , tested on Escherichia coli TOP10?
Ans: -0.321

Q: Which measured shrunken log2 fold change belongs to `RRIRCRPPRLPRPRPRPQERPRP` , tested on Escherichia coli TOP10?;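 note: peptides expressed intracellularly from a pBAD plasmid library in pooled LB shake-flask culture, induced with 0.3% L-arabinose, DNA abundance read by NGS, three biological replicates, DESeq2 with apeglm shrinkage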
Ans: -0.028
